B1: DnaJ homolog subfamily C member 2, residues 451 to 503; numbered along this chain, Q99543 (parent)
chain: SKNWSEDDLQLLIKAVNLFPAGTNSRWEVIANYMNIHSSSGVKRTAKDVIGKA

# Variants of: B1
# Assay: abundance fitness (aPCA) (normalised: wild type 0, dead -1); higher = more abundant; growth selection in yeast, the domain comes from the species named
# Condition: Homo sapiens
Documented abundance fitness across a set of variants

A31I    -0.82
S40D    -0.282
A46S    -0.099
T23P    -0.539
K2H    -0.214
S1M    -0.364
D8N    -0.757
Y33E    -0.805
K52G    -0.006
M34I    -0.011

Request: Find the recorded abundance fitness belonging to E28N and report it.
Result: -0.312

Request: Proceed to S25Q
Result: -0.235

Request: Proceed to G41R
Result: -0.061

Request: Proceed to N35P
Result: -1.08
